systemName: Cystic fibrosis transmembrane conductance regulator (Homo sapiens, UniProt P13569, F508DEL)
assayInfo: Corrector activity at HRP-fused CFTR F508del mutant (unknown origin) expressed in human CFBE41o cells assessed as increase in matured protein levels at cell surface after 18 to 24 hrs by luminescence assay
Type: cell-based
Below is a list of entries, each paired with its recorded EC50 value.

Sample records with EC50:
smilesEntry | resultValue
COc1ccc(C(C)(C)C)cc1CN[C@H]1[C@H](C(C)(C)C)[C@@H](C(=O)O)N(C(=O)C2CCCCC2)[C@H]1c1cccnc1N(C)C | < 1000 nM
COc1ccc(-c2cccc(F)c2F)cc1CN[C@H]1[C@H](C(C)(C)C)[C@@H](C(=O)O)N(C(=O)C2CCCCC2)[C@H]1c1ccccc1 | < 1000 nM

What does the record list as EC50 for "COc1ncc(C2CCC2)cc1CN[C@H]1[C@H](C(C)(C)C)[C@@H](C(=O)O)N(C(=O)C2CCCCC2)[C@H]1c1ccccc1C" ?
< 1000 nM

====

System: Cystic fibrosis transmembrane conductance regulator (Homo sapiens), P13569 [F508del]
Sequence (P13569 as listed by the source): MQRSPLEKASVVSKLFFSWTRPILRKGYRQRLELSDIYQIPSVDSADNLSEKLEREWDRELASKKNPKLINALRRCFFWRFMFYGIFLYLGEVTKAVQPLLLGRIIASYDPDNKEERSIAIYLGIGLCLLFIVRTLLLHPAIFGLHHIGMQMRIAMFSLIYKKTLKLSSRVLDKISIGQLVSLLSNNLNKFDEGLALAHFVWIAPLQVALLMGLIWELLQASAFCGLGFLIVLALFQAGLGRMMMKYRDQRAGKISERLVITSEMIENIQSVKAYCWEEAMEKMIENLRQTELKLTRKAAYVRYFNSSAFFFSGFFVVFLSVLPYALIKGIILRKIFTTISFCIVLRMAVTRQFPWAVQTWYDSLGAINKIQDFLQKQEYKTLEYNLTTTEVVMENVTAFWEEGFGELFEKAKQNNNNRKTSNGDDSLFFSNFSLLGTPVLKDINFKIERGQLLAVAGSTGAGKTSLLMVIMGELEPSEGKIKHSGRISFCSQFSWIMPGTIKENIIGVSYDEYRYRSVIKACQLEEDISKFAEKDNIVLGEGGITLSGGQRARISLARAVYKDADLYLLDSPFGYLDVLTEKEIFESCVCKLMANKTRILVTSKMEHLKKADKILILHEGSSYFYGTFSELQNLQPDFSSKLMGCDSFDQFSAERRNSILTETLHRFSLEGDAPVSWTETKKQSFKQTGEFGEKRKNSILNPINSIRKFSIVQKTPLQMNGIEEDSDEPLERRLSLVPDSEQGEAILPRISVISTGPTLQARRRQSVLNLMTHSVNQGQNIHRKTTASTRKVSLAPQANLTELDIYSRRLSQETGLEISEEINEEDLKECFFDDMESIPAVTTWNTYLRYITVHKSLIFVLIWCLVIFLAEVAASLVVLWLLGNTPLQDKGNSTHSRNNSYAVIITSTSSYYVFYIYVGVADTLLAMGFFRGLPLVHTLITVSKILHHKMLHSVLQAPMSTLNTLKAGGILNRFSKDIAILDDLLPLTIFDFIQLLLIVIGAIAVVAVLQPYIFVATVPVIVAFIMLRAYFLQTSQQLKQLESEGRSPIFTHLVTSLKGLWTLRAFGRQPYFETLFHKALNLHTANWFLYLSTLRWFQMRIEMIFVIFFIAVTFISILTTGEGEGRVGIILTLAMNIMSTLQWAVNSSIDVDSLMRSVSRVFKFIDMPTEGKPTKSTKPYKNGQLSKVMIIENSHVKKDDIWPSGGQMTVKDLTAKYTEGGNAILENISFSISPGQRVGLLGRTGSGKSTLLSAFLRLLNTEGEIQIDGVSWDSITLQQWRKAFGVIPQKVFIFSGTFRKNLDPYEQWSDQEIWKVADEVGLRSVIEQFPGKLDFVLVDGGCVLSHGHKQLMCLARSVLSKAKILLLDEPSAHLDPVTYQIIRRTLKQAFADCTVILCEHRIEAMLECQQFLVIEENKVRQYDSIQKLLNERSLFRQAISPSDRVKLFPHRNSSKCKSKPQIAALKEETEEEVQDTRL
assayInfo: Corrector activity at HRP-fused CFTR F508del mutant (unknown origin) expressed in human CFBE41o cells assessed as increase in matured protein levels at cell surface at 20 uM after 18 to 24 hrs by luminescence assay relative to 3-[(2R,4R)-4-({[l-(2,2-difluoro-l,3-benzodioxol-5-yl)cyclopropyl]carbonyl}amino)-7-methoxy-3,4-dihydro-2H-chromen-2-yl]benzoic acid
Assay type: cell-based
Entries and their %max values follow.

Known results for molecules:
smilesEntry | %max
COc1cc2c(cc1CN[C@H]1[C@H](C(C)(C)C)[C@@H](C(=O)O)N(C(=O)C3CCCCC3)[C@H]1c1ccccc1)C(C)(C)CCC2(C)C | 100 to 200%
COc1ccc(C(C)(C)C)cc1CN[C@H]1[C@H](C(C)(C)C)[C@@H](C(=O)O)N(C(=O)C2CCCCC2)[C@H]1c1cccnc1N(C)C | > 200%

In the following, a different molecule is considered.
%max for "COc1ncc(C(C)C)cc1CN[C@H]1[C@H](C(C)(C)OC)[C@@H](C(=O)O)N(C(=O)C2CCCCC2)[C@H]1c1ccccc1" ?
> 200%

====

systemName: Cystic fibrosis transmembrane conductance regulator (Homo sapiens, UniProt P13569, F508DEL)
assayInfo: Corrector activity at HRP-fused CFTR F508del mutant (unknown origin) expressed in human CFBE41o cells assessed as increase in matured protein levels at cell surface after 18 to 24 hrs by luminescence assay
Assay type: cell-based
pEC50: −log10 of the molar value.
Entries annotated with measured pEC50

Record excerpt, results attached:
smilesEntry | reportedMetric | resultValue
COc1ccc(C(C)(C)C)cc1CN[C@H]1[C@H](C(C)(C)C)[C@@H](C(=O)O)N(C(=O)[C@@H]2Cc3ccccc3O2)[C@H]1c1ccccc1 | pEC50 | > 6.00
COc1ccc([Si](C)(C)C)cc1CN[C@H]1[C@H](C(C)(C)C)[C@@H](C(=O)O)N(C(=O)C2CCCCC2)[C@H]1c1ccccc1 | pEC50 | > 6.00
CC(C)c1ccccc1[C@H]1[C@@H](NCc2cccc3c2OC(C)(C)C3)[C@H](C(C)(C)C)[C@@H](C(=O)O)N1C(=O)[C@@H]1CCCCO1 | pEC50 | > 6.00
COc1ccc(C2(C)CCC2)cc1CN[C@H]1[C@H](C(C)(C)C)[C@@H](C(=O)O)N(C(=O)[C@@H]2CCCCO2)[C@H]1c1ccccc1C | pEC50 | > 6.00
COc1ncc(C(C)C)cc1CN[C@H]1[C@H](C(C)(C)OC)[C@@H](C(=O)O)N(C(=O)C2CCCCC2)[C@H]1c1ccccc1 | pEC50 | 5.00 to 6.00

We now examine a further molecule.
Could you share which pEC50 value was measured for "COc1cc2c(cc1CN[C@H]1[C@H](C(C)(C)C)[C@@H](C(=O)O)N(C(=O)C3CCCCC3)[C@H]1c1ccccc1)C(C)(C)CCC2(C)C" ?
> 6.00
